# System: velvetleaf (Abutilon theophrasti)
# Method Notes: Preemergence herbicidal activity
# Type: in vivo
# Recorded Conditions: Abutilon theophrasti, 504 h; Table 6 (headed Post-emergent; text: preemergence); rate 280 ppm; after 3 weeks; read-out: % Control ABUTH
Exercise: for every item that follows, state its recorded pest or weed control at 280 ppm.
Give the value; after it, write the unit.

**Q:** Enter reported pest or weed control at 280 ppm observed with velvetleaf (Abutilon theophrasti) for CCOC(=O)c1nc(Cl)cc(N)c1Cl
**A:** 100%

**Q:** Enter reported pest or weed control at 280 ppm observed with velvetleaf (Abutilon theophrasti) for CCCCOC(=O)c1nc(Cl)cc(N)c1Cl
**A:** 100%

**Q:** Enter reported pest or weed control at 280 ppm observed with velvetleaf (Abutilon theophrasti) for CCCCCCOC(=O)c1nc(Cl)cc(N)c1Cl
**A:** 100%

**Q:** Enter reported pest or weed control at 280 ppm observed with velvetleaf (Abutilon theophrasti) for Nc1c(Cl)c(Oc2ccccc2)nc(C(=O)O)c1Cl
**A:** 50%

**Q:** Enter reported pest or weed control at 280 ppm observed with velvetleaf (Abutilon theophrasti) for Nc1cc(Oc2cc(Cl)cc(Cl)c2)nc(C(=O)O)c1Cl
**A:** 95%

**Q:** Enter reported pest or weed control at 280 ppm observed with velvetleaf (Abutilon theophrasti) for COc1c(N)cc(Br)nc1C(=O)O
**A:** 90%

**Q:** Enter reported pest or weed control at 280 ppm observed with velvetleaf (Abutilon theophrasti) for CCCOC(=O)c1nc(Cl)cc(N)c1Cl
**A:** 100%

**Q:** Enter reported pest or weed control at 280 ppm observed with velvetleaf (Abutilon theophrasti) for CCCCOCCOC(=O)c1nc(Cl)cc(N)c1Cl
**A:** 100%

**Q:** Enter reported pest or weed control at 280 ppm observed with velvetleaf (Abutilon theophrasti) for CCCCCOC(=O)c1nc(Cl)cc(N)c1Cl
**A:** 100%

**Q:** Enter reported pest or weed control at 280 ppm observed with velvetleaf (Abutilon theophrasti) for Nc1cc(Oc2ccccc2)nc(C(=O)O)c1Cl
**A:** 100%

**Q:** Enter reported pest or weed control at 280 ppm observed with velvetleaf (Abutilon theophrasti) for COC(=O)c1nc(Cl)cc(N)c1Cl
**A:** 100%

**Q:** Enter reported pest or weed control at 280 ppm observed with velvetleaf (Abutilon theophrasti) for CCCCC(CC)COC(=O)c1nc(Cl)cc(N)c1Cl (stereo not drawn)
**A:** 100%

**Q:** Enter reported pest or weed control at 280 ppm observed with velvetleaf (Abutilon theophrasti) for CC(C)OC(=O)c1nc(Cl)cc(N)c1Cl
**A:** 100%

**Q:** Enter reported pest or weed control at 280 ppm observed with velvetleaf (Abutilon theophrasti) for Nc1cc(Oc2ccc(Cl)c(Cl)c2)nc(C(=O)O)c1Cl
**A:** 80%

**Q:** Enter reported pest or weed control at 280 ppm observed with velvetleaf (Abutilon theophrasti) for COC(=O)c1nc(Br)c(Br)c(N)c1Br
**A:** 98%

Entry source: patent US20010047099A1
